Hi there, I'd appreciate the recorded amyloid nucleation score for every entry that follows.
# ASSAY DETAILS: amyloid nucleation score (Sup35N fusion, yeast selection) (log enrichment); library NNK2; higher = more nucleation; inactive = no reads after selection;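 also: zero at mode of non-aggregating sequences after 7 days selection at 30°C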

Task: Request the reported amyloid nucleation score associated with `AKDRTCRWLISKQSIPDSRA`
Result: 0.119

Task: Name the recorded amyloid nucleation score for `SIINLTVPAHPHLNNPLRRQ` .
Result: 4.76

Task: Which amyloid nucleation score value is on record for `ELTTTTTYVRKVFCLYFS` ?
Result: 8.42

Task: Name the recorded amyloid nucleation score for `HMEKWCSSTMSRLLSVQLAK` .
Result: 0.771

Task: Look up amyloid nucleation score: `YSRGIWCNLDGHERCVSLST`
Result: -0.266

* * *

Give amyloid nucleation score for every item shown.
# ASSAY DETAILS: amyloid nucleation score (Sup35N fusion, yeast selection) (log enrichment); library NNK2; higher = more nucleation; inactive = no reads after selection
Lab note: jot the number down without any unit.

Task: // query amyloid nucleation score value for entry `NRKEQVVPLHVRSPI`
Result: 1.13

Task: What value of amyloid nucleation score has been recorded for this entry: `FNVLIACWGYKDNFNVYSCE`
Result: 5.84

Task: Form field: reported amyloid nucleation score of `CFLGLYGDIASIFNQ`
Result: -0.889

Task: # input sequence: `GNVLFAFTFSVCLKFLAFVF` ; wanted: its amyloid nucleation score
Result: -0.407

Task: Param item = `IAVYTYLAGAWKHLETLAFP` ; retrieve measured amyloid nucleation score.
Result: 3.8

Task: // lookup amyloid nucleation score for `TGHKFPLRGSMRVVLDFFSR`
Result: 3.09

Task: Which amyloid nucleation score reading was recorded for the sequence `CIFGMDKHTYQHVVHSTLLV` ?
Result: 0.181

* * *

# ASSAY DETAILS: amyloid nucleation score (Sup35N fusion, yeast selection) (log enrichment); library NNK1; higher = more nucleation; inactive = no reads after selection
QUANTITY NAME: amyloid nucleation score

YVAFEKTL	inactive
RHFRMGRHRFEGWVLTGASG	0.194
DTNIHRVEFLISFFGRELSQ	inactive
FESRRVKNGID	inactive
SQSRRVSGQQDGPQMYSNGP	-0.232
GSTRVRTCGRKLMCALS	0.835

// switching to the query substance
Task: For the substance `QRHSLNDNCRCLRYPQHSPN` , what amyloid nucleation score is on record?
Result: 1.07

* * *

Could you please report measured amyloid nucleation score for the items listed next?
# ASSAY DETAILS: amyloid nucleation score (Sup35N fusion, yeast selection) (log enrichment); library NNK2; higher = more nucleation; inactive = no reads after selection
Hey, just send me the number, nothing else.

Task: Report amyloid nucleation score for `KIEGHGFYYLFNWTA` please.
Result: -0.833

Task: Reported amyloid nucleation score, substance `DTLLSMAKRCLDSVFLGFPR` : ____
Result: -0.134

Task: Quick check: amyloid nucleation score of `FIYLIMFCKMVQWTIAFFKA` ?
Result: -0.658

Task: Request the reported amyloid nucleation score associated with `IFHHPNHIHVDQFSPLLFYE`
Result: -0.64

* * *

Field: amyloid nucleation score. Provide a value for each of the substances that follow.
# ASSAY DETAILS: amyloid nucleation score (Sup35N fusion, yeast selection) (log enrichment); library NNK2; higher = more nucleation; inactive = no reads after selection
Please reply with the value in numeric form only.

Task: Which amyloid nucleation score is reported for this substance? `YNVQFTSEIVSE`
Result: 0.001

Task: Item `KPAERLFKCRSTE` has what recorded amyloid nucleation score?
Result: 0.014

Task: Bench note: what amyloid nucleation score did `LVLTDSAYRFFKRGDSVDKC` show?
Result: 1.62

Task: Recorded amyloid nucleation score of `DNKYGFMIVIYTYSAGDAEE` , please.
Result: 2.62

Task: Data request, read-out amyloid nucleation score, for `HYCRHLLVLHSSKYARSHSS`
Result: -0.338

Task: Return reported amyloid nucleation score; argument: `IRNLLCVSYGCTGYMMVGHG`
Result: 4.68

Task: Reported amyloid nucleation score for `EMLFWVVGTMDVDWMPG` : what is it?
Result: 0.508

Task: Requested read-out: amyloid nucleation score. Entry: `LVYCSLLNLILWMSAYI`
Result: -0.518

Task: Would you kindly share the measured amyloid nucleation score for `ASHLVVTLVNKVKCNAVVRG` ?
Result: 0.758

Task: What value of amyloid nucleation score has been recorded for this entry: `GSCSEHTKLLI`
Result: -0.455

Task: Given the substance `FLMSTSLRSCICCVLLPSDN` , what is its reported amyloid nucleation score?
Result: 8.91

Task: What does the record list as amyloid nucleation score for `HRYEKSAHTVVWSIMVFS` ?
Result: 0.033

Task: Can you look up the measured amyloid nucleation score of `SYYMISY` for me?
Result: 2.05

Task: What amyloid nucleation score value was documented for this substance, `LLGTFYTS` ?
Result: -1

Task: Record request: amyloid nucleation score value, item `SKFYLKRKSDISYIYASPWR`
Result: 1.94

Task: Suppose we examine the substance `LYVCHKICSSCLKGW` ; what amyloid nucleation score value has been reported?
Result: -1.11

Task: So what does the record say about amyloid nucleation score for `DRVLRVDSLSAVAVNNLVVR` ?
Result: -0.178

Task: Find the recorded amyloid nucleation score belonging to `FSRTSPIRQMIWKFLDCQPA` and report it.
Result: -0.978

Task: Quick one: amyloid nucleation score of `VGSGRLTWT` ?
Result: 0.917

Task: Look up amyloid nucleation score: `VTVTYLWIC`
Result: 1.88

Task: Find the recorded amyloid nucleation score belonging to `LDVPARSMCFY` and report it.
Result: -0.761

Task: Can you look up the measured amyloid nucleation score of `SFTFCARNSGLIGWSGDISS` for me?
Result: 4.07

Task: // returns reported amyloid nucleation score for input `RLRDDENIGIFMTF`
Result: -1.15

Task: What amyloid nucleation score value was documented for this substance, `SKMVDLVVNPQVYCLRRVFW` ?
Result: 2.9

Task: I'd like to know its amyloid nucleation score. The substance in question is `AVMWTK`
Result: 0.669

Task: Could you tell me which amyloid nucleation score is on file for `NYLTQCSRSFNFARVDF` ?
Result: -0.003

Task: # query: amyloid nucleation score of entry `SLWTNTSWSAVVQNNWYGTF`
Result: 6.94

Task: // lookup amyloid nucleation score for `TIFFMGM`
Result: 3.65
